Every entry's value here was drawn from ChEMBL document CHEMBL3875165.

# assay info: Total clearance in mouse at 20 mg/kg, iv administered as bolus dose by band-culture bioassay
# test parameters: in vivo
measured property: clearance (mL/min/kg)
Field format: number, assumed mL/min/kg, no unit text.

Look over these answered cases.
CO/N=C(\C(=O)N[C@@H]1C(=O)N2C(C(=O)O)=C(CSc3nc(=O)c(=O)[nH]n3C)CS[C@H]12)c1csc(N)n1; 5.49
CCO/N=C(\C(=O)N[C@@H]1C(=O)N2C(C(=O)[O-])=C(/C=C/C[n+]3ccc(-c4c[nH]c(/C([O-])=N/C#N)c4C)cc3)CS[C@H]12)c1csc(N)n1.[Na+]; 15.2
CCO/N=C(\C(=O)N[C@@H]1C(=O)N2C(C(=O)[O-])=C(/C=C/C[n+]3cccc(/C([O-])=N/C#N)c3)CS[C@H]12)c1csc(N)n1.[Na+]; 23.7

Prompt: Form field: reported clearance of `CCO/N=C(\C(=O)N[C@@H]1C(=O)N2C(C(=O)[O-])=C(C[n+]3ccc(-c4cc(/C([O-])=N/C#N)[nH]n4)cc3)CS[C@H]12)c1nc(N)sc1Cl.[Na+]`
Completion: 8

Prompt: Form field: reported clearance of `CCO/N=C(\C(=O)N[C@@H]1C(=O)N2C(C(=O)[O-])=C(/C=C/C[n+]3ccc(-c4c[nH]c(/C([O-])=N/C#N)c4)cc3)CS[C@H]12)c1csc(N)n1.[Na+]`
Completion: 18.9

Prompt: Form field: reported clearance of `CCO/N=C(\C(=O)N[C@@H]1C(=O)N2C(C(=O)[O-])=C(/C=C/C[n+]3cccc4cc(/C([O-])=N/C#N)ccc43)CS[C@H]12)c1csc(N)n1.[Na+]`
Completion: 25.7
